Form field: Cells PE-A Mean (bound hPD-1-mIgG2a) (one value per entry).
Target: T1, human PD-L1 (hPD-L1) expressed on transfected 300.19 cells (human, UniProt Q9NZQ7 19-290)
T1 construct: whole, on cells; also called B7H1
T1 sequence (Q9NZQ7 19-290): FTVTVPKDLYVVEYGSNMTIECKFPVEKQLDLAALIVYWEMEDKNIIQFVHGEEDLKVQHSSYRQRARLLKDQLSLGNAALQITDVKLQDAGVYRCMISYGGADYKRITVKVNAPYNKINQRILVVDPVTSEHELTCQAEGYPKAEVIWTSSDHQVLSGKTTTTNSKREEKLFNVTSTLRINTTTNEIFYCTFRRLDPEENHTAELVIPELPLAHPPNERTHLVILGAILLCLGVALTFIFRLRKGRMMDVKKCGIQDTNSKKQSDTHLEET
Experiment: competition FACS, hPD-L1 300.19 cells, signal = bound hPD-1-mIgG2a, Ab 0.01 ug/ml
Procedure: A competitive FACS analysis was performed to characterize the inhibition of hPD1 binding to hPD-L1 by the soluble huPD-L1 antibodies of the present invention. […] In this assay, 50,000 cells expressing hPD-L1 were pre-incubated with the huPD-L1 or control antibodies for 30 minutes at the following concentrations: 10 μg/ml, 1 μg/ml, 0.1 μg/ml and 0.01 μg/ml. […] After 30 minutes of incubation, the cells were washed twice and then analyzed by FACS. […]

binder	Cells PE-A Mean (bound hPD-1-mIgG2a), MFI
Ab-14 (antibody, V domains shown, also called huPD-L1 Ab # 14) VH: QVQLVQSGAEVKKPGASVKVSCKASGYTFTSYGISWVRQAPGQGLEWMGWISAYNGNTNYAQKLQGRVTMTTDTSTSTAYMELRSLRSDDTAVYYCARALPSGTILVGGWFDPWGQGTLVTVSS VL: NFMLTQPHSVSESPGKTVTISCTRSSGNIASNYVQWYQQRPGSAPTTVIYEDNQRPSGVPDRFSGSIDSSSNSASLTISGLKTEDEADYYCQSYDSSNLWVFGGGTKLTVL	15800
Ab-50 (antibody, V domains shown, also called huPD-L1 Ab # 50) VH: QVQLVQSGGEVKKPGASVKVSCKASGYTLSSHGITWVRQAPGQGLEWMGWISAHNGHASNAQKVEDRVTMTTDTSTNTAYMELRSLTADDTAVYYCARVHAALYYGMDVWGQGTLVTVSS VL: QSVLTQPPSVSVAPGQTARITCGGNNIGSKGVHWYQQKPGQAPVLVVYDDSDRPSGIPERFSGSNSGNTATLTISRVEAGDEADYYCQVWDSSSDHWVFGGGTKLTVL	12500
Ab-31 (antibody, V domains shown, also called huPD-L1 Ab # 31) VH: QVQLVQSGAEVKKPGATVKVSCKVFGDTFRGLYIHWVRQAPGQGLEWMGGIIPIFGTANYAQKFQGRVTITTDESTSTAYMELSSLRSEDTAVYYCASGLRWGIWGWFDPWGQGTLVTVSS VL: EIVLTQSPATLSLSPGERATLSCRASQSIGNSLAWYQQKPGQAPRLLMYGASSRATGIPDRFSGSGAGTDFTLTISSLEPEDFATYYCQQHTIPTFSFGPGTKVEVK	11900
Ab-42 (antibody, V domains shown, also called huPD-L1 Ab # 42; mAb42) VH: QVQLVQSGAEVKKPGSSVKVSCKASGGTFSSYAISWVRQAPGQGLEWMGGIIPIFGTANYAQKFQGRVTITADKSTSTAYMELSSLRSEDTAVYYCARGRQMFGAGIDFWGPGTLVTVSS VL: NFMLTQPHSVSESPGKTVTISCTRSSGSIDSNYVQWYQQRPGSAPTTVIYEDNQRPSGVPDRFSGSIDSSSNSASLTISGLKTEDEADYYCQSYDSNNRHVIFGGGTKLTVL	11800
